Measured values drawn from ChEMBL document CHEMBL3286214 for this set.

Readings of pKi for the listed compounds
Target Or Test System: Tyrosinase (Mus musculus, UniProt P11344)
Sequence (P11344 whole entry): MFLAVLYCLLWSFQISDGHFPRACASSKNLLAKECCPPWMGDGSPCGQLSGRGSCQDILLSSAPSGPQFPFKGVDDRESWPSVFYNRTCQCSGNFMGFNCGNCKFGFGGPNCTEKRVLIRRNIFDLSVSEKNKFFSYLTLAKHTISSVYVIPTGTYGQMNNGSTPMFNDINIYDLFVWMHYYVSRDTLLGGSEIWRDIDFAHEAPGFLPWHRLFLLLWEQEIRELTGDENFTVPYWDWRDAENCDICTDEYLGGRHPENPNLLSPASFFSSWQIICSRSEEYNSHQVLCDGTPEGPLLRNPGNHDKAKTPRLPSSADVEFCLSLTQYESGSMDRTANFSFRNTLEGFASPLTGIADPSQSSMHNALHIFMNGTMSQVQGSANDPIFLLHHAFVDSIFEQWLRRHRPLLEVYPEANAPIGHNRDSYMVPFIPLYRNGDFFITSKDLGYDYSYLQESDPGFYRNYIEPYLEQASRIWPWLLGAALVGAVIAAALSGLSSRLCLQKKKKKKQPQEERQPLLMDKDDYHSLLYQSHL
Test Method Notes: Inhibition of tyrosinase in mouse Melan-a cells assessed as decrease in L-DOPA Vmax at 120 uM by Lineweaver-Burk plot
Assay type: cell-based
For clarity, pKi is expressed as the negative log10 of concentration in mol/L.

Oc1ccc(/C=C/c2cc(O)cc(O)c2)cc1 [RESVERATROL] = 2.54

Given the entry OC[C@H]1O[C@@H](Oc2c(O)cc(O)cc2/C=C/c2ccc(O)cc2)[C@H](O)[C@@H](O)[C@@H]1O , report its measured pKi.
2.55
